tested.on: ΔF508-CFTR (Homo sapiens, UniProt P13569, DEL508-508)
Construct: expressed in transfected cells
Sequence (P13569 with tags, fused parts or gaps DEL508-508): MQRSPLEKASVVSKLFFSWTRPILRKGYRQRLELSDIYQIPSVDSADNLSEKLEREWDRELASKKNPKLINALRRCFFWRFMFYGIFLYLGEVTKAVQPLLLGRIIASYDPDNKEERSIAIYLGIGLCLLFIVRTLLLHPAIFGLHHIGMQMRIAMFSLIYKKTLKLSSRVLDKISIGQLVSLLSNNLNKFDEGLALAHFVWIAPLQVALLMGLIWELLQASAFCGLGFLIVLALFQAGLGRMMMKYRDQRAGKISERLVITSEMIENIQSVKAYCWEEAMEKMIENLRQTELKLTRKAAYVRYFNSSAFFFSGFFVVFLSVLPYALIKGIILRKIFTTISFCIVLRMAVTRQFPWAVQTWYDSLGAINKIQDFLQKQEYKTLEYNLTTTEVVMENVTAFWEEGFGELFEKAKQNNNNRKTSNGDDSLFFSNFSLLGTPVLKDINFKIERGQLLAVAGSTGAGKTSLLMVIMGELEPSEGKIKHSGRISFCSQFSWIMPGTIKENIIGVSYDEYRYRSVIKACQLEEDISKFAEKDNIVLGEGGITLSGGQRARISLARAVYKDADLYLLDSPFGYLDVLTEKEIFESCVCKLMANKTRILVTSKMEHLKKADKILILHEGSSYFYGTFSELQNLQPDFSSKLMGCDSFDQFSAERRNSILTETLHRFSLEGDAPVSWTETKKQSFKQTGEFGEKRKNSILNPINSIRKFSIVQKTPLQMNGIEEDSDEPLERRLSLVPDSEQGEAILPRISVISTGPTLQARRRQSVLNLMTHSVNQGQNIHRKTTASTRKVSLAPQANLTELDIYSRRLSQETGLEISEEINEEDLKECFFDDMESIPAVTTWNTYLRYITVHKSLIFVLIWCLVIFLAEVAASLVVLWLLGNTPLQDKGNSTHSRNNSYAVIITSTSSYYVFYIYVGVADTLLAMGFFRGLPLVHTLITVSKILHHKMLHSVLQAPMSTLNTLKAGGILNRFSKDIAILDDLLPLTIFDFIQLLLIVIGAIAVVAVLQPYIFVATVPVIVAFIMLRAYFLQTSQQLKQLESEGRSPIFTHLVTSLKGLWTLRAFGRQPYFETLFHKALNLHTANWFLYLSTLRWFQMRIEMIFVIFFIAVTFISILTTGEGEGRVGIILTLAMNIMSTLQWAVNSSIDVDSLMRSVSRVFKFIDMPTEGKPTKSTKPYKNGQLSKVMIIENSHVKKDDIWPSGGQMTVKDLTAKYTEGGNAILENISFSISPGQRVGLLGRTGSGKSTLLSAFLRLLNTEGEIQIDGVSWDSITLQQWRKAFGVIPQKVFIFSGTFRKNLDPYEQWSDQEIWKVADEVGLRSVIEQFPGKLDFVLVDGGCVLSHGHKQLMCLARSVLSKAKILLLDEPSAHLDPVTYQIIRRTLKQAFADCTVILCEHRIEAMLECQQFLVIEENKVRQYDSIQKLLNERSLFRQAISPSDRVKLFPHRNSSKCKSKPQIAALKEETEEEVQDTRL
experiment: Membrane potential optical (FRET/VIPR) assay, identification of potentiator compounds
Type: cell-based
condition.details: Table 3; relative efficacy; assay not given
Description: […]
reported.metric: % Activity

{"smiles.string": "Cc1cccc(C)c1NC(=O)c1c[nH]c2ccccc2c1=O", "tested.on": "ΔF508-CFTR (Homo sapiens, UniProt P13569, DEL508-508)", "measured.result": "++ (between 25% to 100%)"}
{"smiles.string": "O=C(Nc1ccc(C(F)(F)F)cc1Cl)c1c[nH]c2cccc(O)c2c1=O", "tested.on": "ΔF508-CFTR (Homo sapiens, UniProt P13569, DEL508-508)", "measured.result": "++ (between 25% to 100%)"}
{"smiles.string": "O=C(Nc1ccc(C(F)(F)F)c(O)c1)c1c[nH]c2cccc(O)c2c1=O", "tested.on": "ΔF508-CFTR (Homo sapiens, UniProt P13569, DEL508-508)", "measured.result": "++ (between 25% to 100%)"}
{"smiles.string": "CCCc1ccc(N(C)C)cc1NC(=O)c1c[nH]c2ccccc2c1=O", "tested.on": "ΔF508-CFTR (Homo sapiens, UniProt P13569, DEL508-508)", "measured.result": "++ (between 25% to 100%)"}
{"smiles.string": "COc1c(N)cc(C(C)(C)C)cc1NC(=O)c1c[nH]c2ccccc2c1=O", "tested.on": "ΔF508-CFTR (Homo sapiens, UniProt P13569, DEL508-508)", "measured.result": "+ (<25%)"}
{"smiles.string": "COCCn1ccc2cc(C(F)(F)F)c(NC(=O)c3c[nH]c4ccc(F)cc4c3=O)cc21", "tested.on": "ΔF508-CFTR (Homo sapiens, UniProt P13569, DEL508-508)", "measured.result": "++ (between 25% to 100%)"}
{"smiles.string": "Cc1cccc2[nH]cc(C(=O)Nc3ccc(N4CCC[C@@H]4C)cc3C(F)(F)F)c(=O)c12", "tested.on": "ΔF508-CFTR (Homo sapiens, UniProt P13569, DEL508-508)", "measured.result": "++ (between 25% to 100%)"}
{"smiles.string": "CC(=O)c1ccc(-c2ccccc2NC(=O)c2c[nH]c3ccccc3c2=O)s1", "tested.on": "ΔF508-CFTR (Homo sapiens, UniProt P13569, DEL508-508)", "measured.result": "++ (between 25% to 100%)"}
{"smiles.string": "O=C(Nc1ccccc1Oc1ccccc1)c1c[nH]c2ccccc2c1=O", "tested.on": "ΔF508-CFTR (Homo sapiens, UniProt P13569, DEL508-508)", "measured.result": "++ (between 25% to 100%)"}
{"smiles.string": "COc1ccc2[nH]cc(C(=O)Nc3ccc(N4CCC(C)(C)C4)cc3C(F)(F)F)c(=O)c2c1", "tested.on": "ΔF508-CFTR (Homo sapiens, UniProt P13569, DEL508-508)", "measured.result": "++ (between 25% to 100%)"}
{"smiles.string": "Cc1cccc2c(=O)c(C(=O)Nc3cc(O)c(C(C)(C)C)cc3C(C)(C)C)c[nH]c12", "tested.on": "ΔF508-CFTR (Homo sapiens, UniProt P13569, DEL508-508)", "measured.result": "+ (<25%)"}
{"smiles.string": "O=C(Nc1ccccc1-c1ccc(F)c(F)c1)c1c[nH]c2ccccc2c1=O", "tested.on": "ΔF508-CFTR (Homo sapiens, UniProt P13569, DEL508-508)", "measured.result": "++ (between 25% to 100%)"}
{"smiles.string": "CC1(c2cc(F)c(NC(=O)c3cnc4ccccc4c3O)cc2O)CCCCCCC1", "tested.on": "ΔF508-CFTR (Homo sapiens, UniProt P13569, DEL508-508)", "measured.result": "++ (between 25% to 100%)"}
{"smiles.string": "Cc1ccc(S(=O)(=O)Nc2ccccc2NC(=O)c2c[nH]c3ccccc3c2=O)cc1", "tested.on": "ΔF508-CFTR (Homo sapiens, UniProt P13569, DEL508-508)", "measured.result": "++ (between 25% to 100%)"}
{"smiles.string": "O=C(Nc1ccccc1-c1cc2ccccc2[nH]1)c1c[nH]c2ccccc2c1=O", "tested.on": "ΔF508-CFTR (Homo sapiens, UniProt P13569, DEL508-508)", "measured.result": "++ (between 25% to 100%)"}
{"smiles.string": "CC(C)(C)c1cc(F)c(NC(=O)c2c[nH]c3cc(F)c(F)cc3c2=O)cc1O", "tested.on": "ΔF508-CFTR (Homo sapiens, UniProt P13569, DEL508-508)", "measured.result": "++ (between 25% to 100%)"}
{"smiles.string": "CCc1cccc2c(=O)c(C(=O)Nc3ccc(C(C)C)cc3C(F)(F)F)c[nH]c12", "tested.on": "ΔF508-CFTR (Homo sapiens, UniProt P13569, DEL508-508)", "measured.result": "+ (<25%)"}
